Recorded pIC50 by entry
- subject_of_test: CYP2D6 (Homo sapiens, UniProt P10635)
- Sequence (P10635 whole entry): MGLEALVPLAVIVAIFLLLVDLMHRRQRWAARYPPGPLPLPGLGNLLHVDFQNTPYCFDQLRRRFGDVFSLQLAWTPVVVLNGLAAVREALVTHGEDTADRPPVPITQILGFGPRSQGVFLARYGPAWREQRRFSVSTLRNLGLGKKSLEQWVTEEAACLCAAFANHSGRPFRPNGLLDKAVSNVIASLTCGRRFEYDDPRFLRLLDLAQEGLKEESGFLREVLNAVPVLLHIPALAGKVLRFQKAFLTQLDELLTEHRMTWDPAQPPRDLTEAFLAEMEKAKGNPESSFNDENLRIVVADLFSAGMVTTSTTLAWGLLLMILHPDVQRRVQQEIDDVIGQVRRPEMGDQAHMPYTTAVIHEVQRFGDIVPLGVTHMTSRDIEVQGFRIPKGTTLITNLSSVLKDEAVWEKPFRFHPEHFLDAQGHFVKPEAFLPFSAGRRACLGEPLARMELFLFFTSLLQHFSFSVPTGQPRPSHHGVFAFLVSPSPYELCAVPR
- experimental_protocol: CYP2D6 inhibition (fluorescent substrate)
- Assay type: in vitro ADME
- study_conditions: CYP2D6, AMMC substrate; read-out: Cyp IC50 2D6
pIC50: −log10 of the molar value.

What pIC50 value was documented for this compound, COc1ccnc2[nH]cc(C(=O)c3c(F)ccc(NS(=O)(=O)c4cccc(F)c4)c3F)c12 ?
< 5.00

# pIC50 lookup, item CCCS(=O)(=O)Nc1ccc(F)c(C(=O)c2c[nH]c3ncc(-c4cncnc4)cc23)c1F
< 5.00

Which pIC50 is listed for CCCS(=O)(=O)Nc1ccc(F)c(C(=O)c2c[nH]c3ncc(-c4ccc(OCCN5CCCC5)nc4)cc23)c1F ?
< 5.00

---

Recorded pIC50 for the following molecules
- subject_of_test: CYP2C9 (Homo sapiens, UniProt P11712)
- Sequence (P11712 whole entry): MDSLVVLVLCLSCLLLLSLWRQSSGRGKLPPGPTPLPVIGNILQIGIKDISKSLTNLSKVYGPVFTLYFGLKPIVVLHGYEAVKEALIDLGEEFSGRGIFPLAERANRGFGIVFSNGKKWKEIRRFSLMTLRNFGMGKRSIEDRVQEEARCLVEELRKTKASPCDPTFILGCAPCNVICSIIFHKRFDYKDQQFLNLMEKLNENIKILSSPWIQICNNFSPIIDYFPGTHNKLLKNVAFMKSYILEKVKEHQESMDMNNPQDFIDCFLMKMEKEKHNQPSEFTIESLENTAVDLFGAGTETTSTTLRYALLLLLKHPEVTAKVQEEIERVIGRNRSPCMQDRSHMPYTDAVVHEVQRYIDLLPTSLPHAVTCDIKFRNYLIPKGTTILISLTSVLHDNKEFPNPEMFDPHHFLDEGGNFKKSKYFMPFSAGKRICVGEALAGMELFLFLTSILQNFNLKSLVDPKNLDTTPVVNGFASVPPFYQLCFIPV
- experimental_protocol: CYP2C9 inhibition (fluorescent substrate)
- Assay type: in vitro ADME
- study_conditions: CYP2C9, MFC substrate; read-out: Cyp IC50 2C9
pIC50: −log10 of the molar value.

The examples below pair each entry with its known result.
{"structure_notation": "CCCS(=O)(=O)Nc1ccc(F)c(C(=O)c2c[nH]c3ncc(-c4ccc(C#CCN(CC)CC)nc4)cc23)c1F", "readout_type": "pIC50", "recorded_measurement": "5.00 to 5.30"}
{"structure_notation": "CCCS(=O)(=O)Nc1ccc(F)c(C(=O)c2c[nH]c3ncc(-c4ccc(C)nc4)cc23)c1F", "readout_type": "pIC50", "recorded_measurement": "> 5.30"}
{"structure_notation": "O=C(c1c(F)ccc(NS(=O)(=O)c2c(F)cccc2F)c1F)c1c[nH]c2ncc(Cl)cc12", "readout_type": "pIC50", "recorded_measurement": "< 5.00"}

Value wanted: pIC50 (CYP2C9 (Homo sapiens, UniProt P11712)) of entry N#Cc1ccnc2[nH]cc(C(=O)c3c(F)ccc(NS(=O)(=O)c4ccccc4F)c3F)c12
< 5.00

---

pIC50: −log10 of the molar value.
So I've got pIC50 readings for c-Raf-1 (Homo sapiens), take a look.

Query for c-Raf-1 (Homo sapiens): what pIC50 does the record show for CCCS(=O)(=O)Nc1ccc(F)c(C(=O)c2c[nH]c3ncc(-c4ccc(CCCOC)nc4)cc23)c1F ?
> 7.00

What pIC50 appears in the records for this compound with c-Raf-1 (Homo sapiens)? O=C(c1c(F)ccc(NS(=O)(=O)c2c(F)cccc2F)c1F)c1c[nH]c2nccc(Cl)c12
Sequence (P04049 whole entry): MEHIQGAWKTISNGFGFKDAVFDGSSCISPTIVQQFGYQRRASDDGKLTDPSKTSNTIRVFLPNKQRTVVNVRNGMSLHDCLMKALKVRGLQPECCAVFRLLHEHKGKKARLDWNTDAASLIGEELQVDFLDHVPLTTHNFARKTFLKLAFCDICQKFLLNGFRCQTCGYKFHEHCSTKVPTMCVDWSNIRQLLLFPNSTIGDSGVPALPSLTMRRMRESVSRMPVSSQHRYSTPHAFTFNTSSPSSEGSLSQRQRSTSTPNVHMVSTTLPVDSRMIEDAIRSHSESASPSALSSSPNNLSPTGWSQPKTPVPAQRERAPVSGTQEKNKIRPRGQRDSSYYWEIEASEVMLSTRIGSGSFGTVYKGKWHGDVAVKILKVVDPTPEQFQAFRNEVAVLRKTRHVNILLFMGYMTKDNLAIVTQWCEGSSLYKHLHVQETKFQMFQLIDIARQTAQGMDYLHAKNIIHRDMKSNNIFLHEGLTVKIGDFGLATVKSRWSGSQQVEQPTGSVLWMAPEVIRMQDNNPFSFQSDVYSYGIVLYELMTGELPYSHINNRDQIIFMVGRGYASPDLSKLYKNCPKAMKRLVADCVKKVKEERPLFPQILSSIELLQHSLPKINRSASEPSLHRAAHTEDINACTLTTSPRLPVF
> 8.00

For c-Raf-1 (Homo sapiens), provide pIC50 of N#Cc1cnc2[nH]cc(C(=O)c3c(F)ccc(NS(=O)(=O)c4ccccc4)c3F)c2c1 please.
> 8.00

What measured pIC50 is associated with COc1ccnc2[nH]cc(C(=O)c3c(F)ccc(NS(=O)(=O)c4cccc(F)c4)c3F)c12 on c-Raf-1 (Homo sapiens)?
> 8.00

Find pIC50 (c-Raf-1 (Homo sapiens)) for the entry COc1ccnc2[nH]cc(C(=O)c3c(F)ccc(NS(=O)(=O)c4cc(F)ccc4F)c3F)c12
> 8.00

Given the entry CCCS(=O)(=O)Nc1ccc(F)c(C(=O)c2c[nH]c3ncc(-c4ccc(C(N)=O)nc4)cc23)c1F , what pIC50 was observed with c-Raf-1 (Homo sapiens)?
> 7.00
